experiment: Acute toxicity (LD50) in mice
Type: in vivo
measurement setup: mouse, in vivo, ip; mice
endpoint: LD50

Task item: Consider the compound C[C@](N)(CCCNC(=N)N)C(=O)O and give its measured LD50.
Reply: > 1000 mg/kg

* * *

experiment: Acute toxicity (LD50) in mice
Type: in vivo
measurement setup: mouse, in vivo, po; mice
endpoint: LD50

Task item: What does the data say about its LD50? Entry: C[C@](N)(CCCNC(=N)N)C(=O)O
Reply: > 1000 mg/kg
